From: BigSolDB 2.1

Conditions: in sec-butanol, 318.15 K
measurement-name: solubility (mole fraction)
Keep it simple and answer with nothing but the number.

Quick one: give measured solubility (mole fraction) for COc1cc(C(=O)O)cc(OC)c1O
0.00737

====

Conditions: in sec-butanol, 293.15 K
measurement-name: solubility (mole fraction)
// no unit, no text: just the number

State its solubility (mole fraction): COc1cc(C(=O)O)cc(OC)c1O
0.0029

====

Conditions: in isopropanol, 283.15 K
measurement-name: solubility (mole fraction)

Read the entry COc1cc(C(=O)O)cc(OC)c1O and write its reported solubility (mole fraction).
0.00401

====

Details: in methanol, 323.15 K
measurement-name: solubility (mole fraction)

State its solubility (mole fraction): COc1cc(C(=O)O)cc(OC)c1O
0.0331

====

Conditions: in ethanol, 313.15 K
measurement-name: solubility (mole fraction)
Number, no unit, nothing else.

Annotate the compound COc1cc(C(=O)O)cc(OC)c1O with its measured solubility (mole fraction).
0.0251

====

Conditions: in methanol, 288.15 K
measurement-name: solubility (mole fraction)

Give a short answer stating reported solubility (mole fraction) for COc1cc(C(=O)O)cc(OC)c1O .
0.015

====

Conditions: in isopropanol, 298.15 K
measurement-name: solubility (mole fraction)
No unit in the answer, please; the number alone is enough.

Assign solubility (mole fraction) to the following record: COc1cc(C(=O)O)cc(OC)c1O
0.00627

====

Settings: in ethyl acetate, 303.15 K
measurement-name: solubility (mole fraction)

For the molecule COc1cc(C(=O)O)cc(OC)c1O , report solubility (mole fraction).
0.00149

====

Conditions: in ethanol, 293.15 K
measurement-name: solubility (mole fraction)
Please give only the number in your answer, with no unit.

Let me know recorded solubility (mole fraction) for COc1cc(C(=O)O)cc(OC)c1O , thanks.
0.0145

====

Details: in n-butanol, 293.15 K
measurement-name: solubility (mole fraction)

Supply measured solubility (mole fraction) of COc1cc(C(=O)O)cc(OC)c1O in your reply.
0.00441

====

Conditions: in n-hexanol, 323.15 K
measurement-name: solubility (mole fraction)
Answer with a number only.

Identify the reported solubility (mole fraction) for the following entry. COc1cc(C(=O)O)cc(OC)c1O
0.0101

====

Details: in isopropanol, 323.15 K
measurement-name: solubility (mole fraction)
Please state the value as a number alone, without comment.

Return value of solubility (mole fraction) for input COc1cc(C(=O)O)cc(OC)c1O , no commentary.
0.0131

====

Details: in n-butanol, 298.15 K
measurement-name: solubility (mole fraction)
Reply with the value as a number alone.

Return value of solubility (mole fraction) for input COc1cc(C(=O)O)cc(OC)c1O , no commentary.
0.00518

====

Settings: in n-butanol, 323.15 K
measurement-name: solubility (mole fraction)
Keep it simple and answer with nothing but the number.

Please list solubility (mole fraction) recorded for the compound COc1cc(C(=O)O)cc(OC)c1O
0.0116

====

Conditions: in n-hexanol, 283.15 K
measurement-name: solubility (mole fraction)
Lab note: record just the number, no unit beside it.

For COc1cc(C(=O)O)cc(OC)c1O , write its solubility (mole fraction).
0.00241

====

Conditions: in n-hexanol, 288.15 K
measurement-name: solubility (mole fraction)
Enter a number only.

Determine from records and report solubility (mole fraction) for COc1cc(C(=O)O)cc(OC)c1O
0.00281

====

Details: in n-butanol, 318.15 K
measurement-name: solubility (mole fraction)

Check the records and state solubility (mole fraction) for COc1cc(C(=O)O)cc(OC)c1O
0.0098

====

Conditions: in ethyl acetate, 313.15 K
measurement-name: solubility (mole fraction)
Give the figure only, with no unit attached.

Look up solubility (mole fraction) of COc1cc(C(=O)O)cc(OC)c1O and report it.
0.00221

====

Conditions: in n-butanol, 288.15 K
measurement-name: solubility (mole fraction)

For the compound COc1cc(C(=O)O)cc(OC)c1O , report solubility (mole fraction).
0.00375

====

Conditions: in methanol, 303.15 K
measurement-name: solubility (mole fraction)

Determine from records and report solubility (mole fraction) for COc1cc(C(=O)O)cc(OC)c1O
0.0209

====

Conditions: in isopropanol, 303.15 K
measurement-name: solubility (mole fraction)
The answer should be a number; do not append a unit.

# return recorded solubility (mole fraction) for entry COc1cc(C(=O)O)cc(OC)c1O
0.00752

====

Details: in sec-butanol, 308.15 K
measurement-name: solubility (mole fraction)
Lab note: write the figure by itself, no unit.

Please look at this compound and report its solubility (mole fraction): COc1cc(C(=O)O)cc(OC)c1O
0.00503

====

Conditions: in ethylene glycol, 293.15 K
measurement-name: solubility (mole fraction)
Number only, no unit.

// fetch solubility (mole fraction) given entry COc1cc(C(=O)O)cc(OC)c1O
0.0113

====

Settings: in sec-butanol, 313.15 K
measurement-name: solubility (mole fraction)

Give the measured solubility (mole fraction) for COc1cc(C(=O)O)cc(OC)c1O
0.00604

====

Settings: in sec-butanol, 303.15 K
measurement-name: solubility (mole fraction)
Please give only the number in your answer, with no unit.

Tell me solubility (mole fraction) reported for COc1cc(C(=O)O)cc(OC)c1O
0.00432

====

Conditions: in ethanol, 308.15 K
measurement-name: solubility (mole fraction)
// return just the number, without any unit appended

For the molecule COc1cc(C(=O)O)cc(OC)c1O , give its measured solubility (mole fraction) value.
0.0217

====

Settings: in methanol, 318.15 K
measurement-name: solubility (mole fraction)
The answer should be written as a number, with no unit following it.

Let me know recorded solubility (mole fraction) for COc1cc(C(=O)O)cc(OC)c1O , thanks.
0.0298

====

Details: in n-hexanol, 318.15 K
measurement-name: solubility (mole fraction)
Quick one: just the number, no unit, thanks!

Kindly indicate its recorded solubility (mole fraction). Item: COc1cc(C(=O)O)cc(OC)c1O
0.00852

====

Details: in ethyl acetate, 323.15 K
measurement-name: solubility (mole fraction)

Give a short answer stating reported solubility (mole fraction) for COc1cc(C(=O)O)cc(OC)c1O .
0.00323

====

Conditions: in sec-butanol, 323.15 K
measurement-name: solubility (mole fraction)
Just the number, please, no unit after it.

Tell us which solubility (mole fraction) value is on record for COc1cc(C(=O)O)cc(OC)c1O
0.00921

====

Conditions: in ethyl acetate, 293.15 K
measurement-name: solubility (mole fraction)
API note: the answer field is a bare number with no unit suffix.

Find the measured solubility (mole fraction) of COc1cc(C(=O)O)cc(OC)c1O and report it.
0.001

====

Settings: in ethanol, 323.15 K
measurement-name: solubility (mole fraction)
I only need the number, thanks.

In one line, give reported solubility (mole fraction) of the entry COc1cc(C(=O)O)cc(OC)c1O .
0.0316

====

Settings: in n-butanol, 308.15 K
measurement-name: solubility (mole fraction)
Answer as a number with no unit attached.

Note solubility (mole fraction) for the molecule shown: COc1cc(C(=O)O)cc(OC)c1O
0.00735

====

Settings: in ethylene glycol, 288.15 K
measurement-name: solubility (mole fraction)
Form: value (number only, do not type unit).

State its solubility (mole fraction) for this compound: COc1cc(C(=O)O)cc(OC)c1O
0.00951

====

Conditions: in sec-butanol, 298.15 K
measurement-name: solubility (mole fraction)
Just the number, please, no unit attached.

Name the recorded solubility (mole fraction) of the compound listed here: COc1cc(C(=O)O)cc(OC)c1O
0.00357

====

Conditions: in ethylene glycol, 303.15 K
measurement-name: solubility (mole fraction)
Returns: the value as a bare number; no unit string appended.

For the compound COc1cc(C(=O)O)cc(OC)c1O , give its measured solubility (mole fraction) value.
0.0146

====

Settings: in ethylene glycol, 318.15 K
measurement-name: solubility (mole fraction)
Simply state the number, no unit and no words.

Report solubility (mole fraction) for COc1cc(C(=O)O)cc(OC)c1O
0.0235

====

Conditions: in ethanol, 298.15 K
measurement-name: solubility (mole fraction)
Response field accepts a number only; no unit should be typed.

Given COc1cc(C(=O)O)cc(OC)c1O , respond with its solubility (mole fraction).
0.0169
